GI50 listing for selected molecules.
System: SK-MEL-28
Experiment: SRB colorimetric assay of cell growth and viability, SK-MEL-28
Assay type: cell-based, human
Conditions: 48 hours exposure
Where a SMILES comes first, the peptide text is derived from it. Bridges are numbered along the chain shown (N, C = ends). [ ]: non-standard residue; d: D form. The star is where a group is joined. d(aIle) = CC[C@H](C)[C@@H](N)C(=O)O; d(aThr) = C[C@@H](O)[C@@H](N)C(=O)O; Hexanoyl(5-Me) = CC(C)CCCC(=O)*; Orn = NCCC[C@H](N)C(=O)O; Dhb = C/C=C(\N)C(=O)O
Provide only the numeric value, understood in µM.

molecule: C/C=C1\NC(=O)[C@H](Cc2ccccc2)NC(=O)[C@@H](C(C)C)NC(=O)[C@@H]([C@@H](C)CC)NC(=O)[C@H](NC(=O)[C@H](NC(=O)[C@H](CCCN)NC(=O)[C@H]2CCCN2C(=O)[C@H](NC(=O)[C@@H](NC(=O)[C@@H]2CCCN2C(=O)CCCC(C)C)C(C)C)C(C)C)[C@@H](C)CC)[C@@H](C)OC(=O)[C@H](C(C)C)NC1=O [Compound 55, [Pro^12, noD-Val^13]-KF] ({Hexanoyl(5-Me)}-PV[dV][dP][Orn][d(aIle)][d(aThr)][d(aIle)][dV]F[Dhb]V; ester 7-C)
value_units: µM
GI50: 7.27

Looking up C/C=C1\NC(=O)[C@H](Cc2ccccc2)NC(=O)[C@@H](C(C)C)NC(=O)[C@@H]([C@@H](C)CC)NC(=O)[C@H](NC(=O)[C@H](NC(=O)[C@H](CCCN)NC(=O)[C@H]2CCCN2C(=O)[C@H](NC(=O)[C@H](CCCN)NC(=O)[C@@H](NC(=O)[C@H](NC(=O)CCCC(C)C)C(C)C)[C@@H](C)O)C(C)C)[C@@H](C)CC)[C@@H](C)OC(=O)[C@H](C(C)C)NC1=O [Compound 49, [Orn^11]-KF] ({Hexanoyl(5-Me)}-[dV]T[Orn][dV][dP][Orn][d(aIle)][d(aThr)][d(aIle)][dV]F[Dhb]V; ester 8-C) , I see its GI50 listed as 1.33

For this molecule ( C/C=C1\NC(=O)[C@H](Cc2ccccc2)NC(=O)[C@@H](C(C)C)NC(=O)[C@@H](C(C)C)NC(=O)[C@H](NC(=O)[C@H](NC(=O)[C@H](CCCN)NC(=O)[C@H]2CCCN2C(=O)[C@H](NC(=O)[C@@H](NC(=O)[C@@H](NC(=O)[C@H](NC(=O)CCCC(C)C)C(C)C)[C@@H](C)O)C(C)C)C(C)C)C(C)C)[C@@H](C)OC(=O)[C@H](C(C)C)NC1=O [Compound 12, [D-Val^5, D-Val^7]-KF] ({Hexanoyl(5-Me)}-[dV]TV[dV][dP][Orn][dV][d(aThr)][dV][dV]F[Dhb]V; ester 8-C) ), measured GI50 is 1.68

Form: molecule = C/C=C1\NC(=O)[C@H](Cc2ccccc2)NC(=O)[C@@H](C(C)C)NC(=O)[C@@H]([C@@H](C)CC)NC(=O)[C@H](NC(=O)[C@H](NC(=O)[C@H](CCCN)NC(=O)[C@H]2CCCN2C(=O)[C@H](NC(=O)[C@H](Cc2ccccc2)NC(=O)[C@@H](NC(=O)[C@H](NC(=O)CCCC(C)C)C(C)C)[C@@H](C)O)C(C)C)[C@@H](C)CC)[C@@H](C)OC(=O)[C@H](C(C)C)NC1=O [Compound 43, [Phe^11]-KF] ({Hexanoyl(5-Me)}-[dV]TF[dV][dP][Orn][d(aIle)][d(aThr)][d(aIle)][dV]F[Dhb]V; ester 8-C) ; GI50 = 0.78

###

Test system: IGROV-ET
Assay: SRB colorimetric assay of cell growth and viability, IGROV-ET
Assay type: cell-based, human
Settings: 48 hours exposure; read-out: LC50 IGROV-ET
Where a SMILES comes first, the peptide text is derived from it. Bridges are numbered along the chain shown (N, C = ends). [ ]: non-standard residue; d: D form. The star is where a group is joined. d(aIle) = CC[C@H](C)[C@@H](N)C(=O)O; d(aThr) = C[C@@H](O)[C@@H](N)C(=O)O; Hexanoyl(5-Me) = CC(C)CCCC(=O)*; Orn = NCCC[C@H](N)C(=O)O; Dhb = C/C=C(\N)C(=O)O
In this section, each of the compounds is paired with its reported CC50.
The answer is to be given in µM; state only the numeric part.

Sample records with CC50:
compound: C/C=C1\NC(=O)[C@H](Cc2ccccc2)NC(=O)[C@@H](C(C)C)NC(=O)[C@@H]([C@@H](C)CC)NC(=O)[C@H](NC(=O)[C@H](NC(=O)[C@H](CCCN)NC(=O)[C@H]2CCCN2C(=O)[C@H](NC(=O)[C@@H](NC(=O)[C@@H](NC(=O)[C@@H](NC(=O)CCCC(C)C)C(C)C)[C@@H](C)O)C(C)C)C(C)C)[C@@H](C)CC)[C@@H](C)OC(=O)[C@H](C(C)C)NC1=O [Compound 38, [Val^13]-KF]
value_units: µM
CC50: 4.49
//
compound: C/C=C1\NC(=O)[C@H](Cc2ccccc2)NC(=O)[C@@H](C(C)C)NC(=O)[C@@H]([C@@H](C)CC)NC(=O)[C@H](NC(=O)[C@H](NC(=O)[C@H](CCCN)NC(=O)[C@H]2CCCN2C(=O)[C@H](NC(=O)[C@@H](NC(=O)[C@@H]2CCCN2C(=O)CCCC(C)C)C(C)C)C(C)C)[C@@H](C)CC)[C@@H](C)OC(=O)[C@H](C(C)C)NC1=O [Compound 55, [Pro^12, noD-Val^13]-KF] ({Hexanoyl(5-Me)}-PV[dV][dP][Orn][d(aIle)][d(aThr)][d(aIle)][dV]F[Dhb]V; ester 7-C)
value_units: µM
CC50: 7.27
//
compound: C/C=C1\NC(=O)[C@H](Cc2ccccc2)NC(=O)[C@@H](C(C)C)NC(=O)[C@@H]([C@@H](C)CC)NC(=O)[C@H](NC(=O)[C@H](NC(=O)[C@H](CCCN)NC(=O)[C@H]2CCCN2C(=O)[C@H](NC(=O)[C@@H](NC(=O)[C@@H](NC(=O)[C@H](NC(=O)c2ccccc2)C(C)C)[C@@H](C)O)C(C)C)C(C)C)[C@@H](C)CC)[C@@H](C)OC(=O)[C@H](C(C)C)NC1=O [Compound 20, [Bza^14]-KF]
value_units: µM
CC50: 4.2

Now look at this one.
Value of CC50 reported for the compound C/C=C1\NC(=O)[C@H](Cc2ccccc2)NC(=O)[C@@H](C(C)C)NC(=O)[C@@H]([C@@H](C)CC)NC(=O)[C@H](NC(=O)[C@H](NC(=O)[C@H](CCCN)NC(=O)[C@H]2CCCN2C(=O)[C@H](NC(=O)[C@@H](NC(=O)[C@@H](NC(=O)[C@H](NC(=O)Cc2cc(F)cc(F)c2)C(C)C)[C@@H](C)O)C(C)C)C(C)C)[C@@H](C)CC)[C@@H](C)OC(=O)[C@H](C(C)C)NC1=O [Compound 22, [3,5-dFPhAc^14]-KF] is 5.01

###

Test system: HeLa-APL
Test: SRB colorimetric assay of cell growth and viability, HeLa-APL
Type: cell-based, human
Conditions: 48 hours exposure; read-out: LC50 HELA-APL
Where a SMILES comes first, the peptide text is derived from it. Bridges are numbered along the chain shown (N, C = ends). [ ]: non-standard residue; d: D form. The star is where a group is joined. d(aIle) = CC[C@H](C)[C@@H](N)C(=O)O; d(aThr) = C[C@@H](O)[C@@H](N)C(=O)O; Hexanoyl(5-Me) = CC(C)CCCC(=O)*; Orn = NCCC[C@H](N)C(=O)O; Dhb = C/C=C(\N)C(=O)O
value_kind: CC50

molecule: C/C=C1\NC(=O)[C@H](Cc2ccccc2)NC(=O)[C@@H](C(C)C)NC(=O)[C@@H]([C@@H](C)CC)NC(=O)[C@H](NC(=O)[C@H](NC(=O)[C@H](CCCN)NC(=O)[C@H]2CCCN2C(=O)[C@H](NC(=O)[C@@H](NC(=O)[C@@H](NC(=O)[C@H](NC(=O)CCCCC(C)=O)C(C)C)[C@@H](C)O)C(C)C)C(C)C)[C@@H](C)CC)[C@@H](C)OC(=O)[C@H](C(C)C)NC1=O [Compound 27, [6-OHep^14]-KF]
CC50: 6.7 µM

The recorded CC50 for entry C/C=C1\NC(=O)[C@H](Cc2ccccc2)NC(=O)[C@@H](C(C)C)NC(=O)[C@@H]([C@@H](C)CC)NC(=O)[C@H](NC(=O)[C@H](NC(=O)[C@H](CCCN)NC(=O)[C@H]2CCCN2C(=O)[C@H](NC(=O)[C@@H](NC(=O)[C@H](CCC(=O)O)NC(=O)CCCC(C)C)C(C)C)C(C)C)[C@@H](C)CC)[C@@H](C)OC(=O)[C@H](C(C)C)NC1=O [Compound 56, [Glu^12, noD-Val^13]-KF] ({Hexanoyl(5-Me)}-EV[dV][dP][Orn][d(aIle)][d(aThr)][d(aIle)][dV]F[Dhb]V; ester 7-C) equals ≥ 7.11 µM
